- system: T1, Soluble CD28-Ig (extracellular domain of human CD28 fused to the Fc portion of human IgG1) (human, UniProt P10747 19-152, biotin-conjugated (NHS-biotin) in the FACS binding assays)
- T1 construct: extracellular domain; bought from R&D Systems; also called sCD28-Ig; CD28-Ig Fc; not shown: Fc portion of human IgG1
- experimental.protocol: competitive FACS on transfected cells, biotin-sCD28-Ig with FITC-sCTLA-4-Ig; grade 0-2 of CD28/CTLA-4 ratio vs WT hB7-1
measured.endpoint: Binding Score

binder	measured.endpoint	endpoint.value
Round 2 CD28BP-16 (ligand) ITPKSVTKRVKETVMLSCDYNTSTEELTSLRIYWQKDSKMVLAILPGKVQVWPEYKNRTITDMNDNPRIVILALRLSDSGTYTCVIQKPVLKGAYKLEHLTSVRLMIRADFPVPTINDLGNPSPNIRRLICSTSGGFPRPHLYWLENGEELNATNTTVSQDPGTELYMISSELDFNVTNNHSIVCLIKYGELSVSQIFPWSKPKQEPPIDQLPFWVIIPVSGALVLAAVVLYCLACRHVARWKRTRRNEETVGTERLSPIYLGSAQSSG	Binding Score	2
Round 2 CD28H6-6 (ligand) ITPKSVTKRVKETVMLSCDYSTSTEELTSLRIYWQKDSKMVLAILPGKVQVWPEYKNRTITDMNDNPRIVILALRLSDSGTYTCVIQKPVLKGAYKLEHLASVRLMIRADFPVPTINDLGNPSPNIRRLICSGFPRPHLYWLENGEELNATNTTVSQDPGTELYMISSELDFNVTNNHSIVCLIKYGELSVSQIFPWSKPKQEPPIDQLPFWVIIPVSGALVLTAVVLYCLACRHVARWKRTRRNEETVGTERLSPIYLGSAQSSG	Binding Score	1
Round 2 CD28A8-6 (ligand) SGITPKSVTKRVKETVMPSCDYSTSTEELTSLRIYWQKDSKMVLAILPGKVQVWPEYKNRTITDMNDNPRIVILALRLSDSGTYTCVVQKNENGSFRREHLTSVTLSIRADFPVPSITDIGHPAPNVKRIRCSASGGFPEPRLAWMEDGEELNAVNTTVDQDLDTELYSVSSELDFNVTNNHSIVCLIKYGELSVSQIFPWSKPKQEPPIDQLPFWVIIPVSGALVLTAVVLYCLACRHVARWKRTRRNEETVGTERLSPIYLGSAQSSG	Binding Score	1
